Test target: DCAF15/RBM39 (Homo sapiens, UniProt Q14498+Q66K64)
Assay notes: AlphaLISA compound-induced DCAF15-RBM39 ternary complex formation
Test settings: His-tagged DCAF15 complex and biotin-carrying RBM39
pEC50: −log10 of the molar value.
Kindly state pEC50 for each of the entries shown.

Previously resolved entries follow.
# Entry smiles, Test target, Observed result
measured = [
    ("O=C(c1cccc(S(=O)(=O)Nc2ccc(Cl)c3c(Cl)c[nH]c23)c1F)N1CC(N2CCc3ccccc32)C1", "DCAF15/RBM39 (Homo sapiens, UniProt Q14498+Q66K64)", "5.00 to 6.00"),
    ("O=C(NCCOC1CCS(=O)(=O)CC1)c1cccc(S(=O)(=O)Nc2ccc(Cl)c3c(Cl)c[nH]c23)c1F", "DCAF15/RBM39 (Homo sapiens, UniProt Q14498+Q66K64)", "> 6.00"),
    ("O=C(c1cccc(S(=O)(=O)Nc2ccc(Cl)c3c(Cl)c[nH]c23)c1F)N1CCC(Oc2cccnc2)CC1", "DCAF15/RBM39 (Homo sapiens, UniProt Q14498+Q66K64)", "> 6.00"),
]

Give pEC50 for each listed item.
1. CC(C)CCOc1ccc(S(=O)(=O)Nc2ccc(Cl)c3c(Cl)c[nH]c23)cc1
2. CC(C)C(=O)Nc1cccc(CNC(=O)c2ccc(S(=O)(=O)Nc3ccc(Cl)c4c(Cl)c[nH]c34)c(F)c2)c1
3. N[C@H]1CC[C@H](Oc2ccc(S(=O)(=O)Nc3ccc(Cl)c4c(Cl)c[nH]c34)cc2)CC1

Output:
["5.00 to 6.00", "5.00 to 6.00", "> 6.00"]

Task: For Cc1cc(CNC(=O)c2cccc(S(=O)(=O)Nc3ccc(Cl)c4c(Cl)c[nH]c34)c2F)nn1C , what is its reported pEC50?
Output: > 6.00
